Target: PonAAS1
Construct: recombinant, fusion protein with trigger factor (pCOLD TF)
Experiment: enzyme inhibition of 5-HTrp→serotonin conversion, dose-response
pIC50: −log10 of the molar value.
readout_label: pIC50

entry_smiles | reported
Oc1ccccc1-c1nc(-c2ccc3c(c2)CCO3)n[nH]1 | ~4.70
